The values you see were collected from the supplement of paper PMC6757056.

In this section we review reported normalized RNA/DNA level with ligand (log10) values for a set of variants.
B1: library; a variant is named by its letters at N, in order (parent)
chain: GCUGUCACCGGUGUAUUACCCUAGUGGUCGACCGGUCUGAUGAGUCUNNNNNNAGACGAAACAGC

# Variants of: B1
# EXPERIMENT_DESCRIPTION: normalized RNA/DNA level with ligand (relative to sTRSVctl = 100) (log10 (% of sTRSVctl)); ligand: hypoxanthine (xanthine aptamer); higher = less ribozyme self-cleavage, higher mRNA level
# RUN_CONDITIONS: ligand concentration (+) RNA-Seq: 5 mM, HEK293T, reporter: mCherry (pCS4076), ligand present: yes
QUANTITY_KIND: normalized RNA/DNA level with ligand (log10)

# BIOPOLYMER_SEQUENCE, RECORDED_VALUE
rows = [
    ("GCUGUCACCGGUGUAUUACCCUAGUGGUCGACCGGUCUGAUGAGUCUAUUCAGAGACGAAACAGC [AUUCAG]", 1.87),
    ("GCUGUCACCGGUGUAUUACCCUAGUGGUCGACCGGUCUGAUGAGUCUUCAUCAAGACGAAACAGC [UCAUCA]", 1.99),
    ("GCUGUCACCGGUGUAUUACCCUAGUGGUCGACCGGUCUGAUGAGUCUCUACUAAGACGAAACAGC [CUACUA]", 1.9),
    ("GCUGUCACCGGUGUAUUACCCUAGUGGUCGACCGGUCUGAUGAGUCUCACAAGAGACGAAACAGC [CACAAG]", 1.88),
    ("GCUGUCACCGGUGUAUUACCCUAGUGGUCGACCGGUCUGAUGAGUCUCACGGUAGACGAAACAGC [CACGGU]", 1.87),
    ("GCUGUCACCGGUGUAUUACCCUAGUGGUCGACCGGUCUGAUGAGUCUCGCCGAAGACGAAACAGC [CGCCGA]", 2.04),
    ("GCUGUCACCGGUGUAUUACCCUAGUGGUCGACCGGUCUGAUGAGUCUUUGCGAAGACGAAACAGC [UUGCGA]", 1.99),
    ("GCUGUCACCGGUGUAUUACCCUAGUGGUCGACCGGUCUGAUGAGUCUUCCGCCAGACGAAACAGC [UCCGCC]", 1.99),
    ("GCUGUCACCGGUGUAUUACCCUAGUGGUCGACCGGUCUGAUGAGUCUCUAAUCAGACGAAACAGC [CUAAUC]", 1.94),
    ("GCUGUCACCGGUGUAUUACCCUAGUGGUCGACCGGUCUGAUGAGUCUAAAUGCAGACGAAACAGC [AAAUGC]", 1.92),
    ("GCUGUCACCGGUGUAUUACCCUAGUGGUCGACCGGUCUGAUGAGUCUCGAUCAAGACGAAACAGC [CGAUCA]", 1.93),
    ("GCUGUCACCGGUGUAUUACCCUAGUGGUCGACCGGUCUGAUGAGUCUAUCUAGAGACGAAACAGC [AUCUAG]", 1.91),
    ("GCUGUCACCGGUGUAUUACCCUAGUGGUCGACCGGUCUGAUGAGUCUGAAGUUAGACGAAACAGC [GAAGUU]", 1.97),
    ("GCUGUCACCGGUGUAUUACCCUAGUGGUCGACCGGUCUGAUGAGUCUCACGUAAGACGAAACAGC [CACGUA]", 1.9),
    ("GCUGUCACCGGUGUAUUACCCUAGUGGUCGACCGGUCUGAUGAGUCUCCUAUAAGACGAAACAGC [CCUAUA]", 1.94),
    ("GCUGUCACCGGUGUAUUACCCUAGUGGUCGACCGGUCUGAUGAGUCUGCACAGAGACGAAACAGC [GCACAG]", 1.86),
    ("GCUGUCACCGGUGUAUUACCCUAGUGGUCGACCGGUCUGAUGAGUCUAGACGCAGACGAAACAGC [AGACGC]", 1.92),
    ("GCUGUCACCGGUGUAUUACCCUAGUGGUCGACCGGUCUGAUGAGUCUUACUAAAGACGAAACAGC [UACUAA]", 1.91),
    ("GCUGUCACCGGUGUAUUACCCUAGUGGUCGACCGGUCUGAUGAGUCUAACAUCAGACGAAACAGC [AACAUC]", 1.95),
    ("GCUGUCACCGGUGUAUUACCCUAGUGGUCGACCGGUCUGAUGAGUCUUUUAAGAGACGAAACAGC [UUUAAG]", 1.91),
    ("GCUGUCACCGGUGUAUUACCCUAGUGGUCGACCGGUCUGAUGAGUCUAUUCUUAGACGAAACAGC [AUUCUU]", 1.94),
    ("GCUGUCACCGGUGUAUUACCCUAGUGGUCGACCGGUCUGAUGAGUCUCAUACGAGACGAAACAGC [CAUACG]", 1.9),
    ("GCUGUCACCGGUGUAUUACCCUAGUGGUCGACCGGUCUGAUGAGUCUGGGCAUAGACGAAACAGC [GGGCAU]", 1.93),
    ("GCUGUCACCGGUGUAUUACCCUAGUGGUCGACCGGUCUGAUGAGUCUACAAGAAGACGAAACAGC [ACAAGA]", 1.89),
    ("GCUGUCACCGGUGUAUUACCCUAGUGGUCGACCGGUCUGAUGAGUCUACCCGUAGACGAAACAGC [ACCCGU]", 1.94),
    ("GCUGUCACCGGUGUAUUACCCUAGUGGUCGACCGGUCUGAUGAGUCUGUAGGUAGACGAAACAGC [GUAGGU]", 1.95),
    ("GCUGUCACCGGUGUAUUACCCUAGUGGUCGACCGGUCUGAUGAGUCUAGAAACAGACGAAACAGC [AGAAAC]", 1.93),
    ("GCUGUCACCGGUGUAUUACCCUAGUGGUCGACCGGUCUGAUGAGUCUAUAUCGAGACGAAACAGC [AUAUCG]", 1.86),
]
